Values from paper PMC9267992

endpoint: FT-IR absorption peak (hydrogen bonding) (cm⁻¹)
Answers are plain numbers, in cm⁻¹.

phenyl-capped Ile-Lys-Val-Ala-Val = 1630

Prompt: Recorded FT-IR absorption peak (hydrogen bonding) of perfluorophenyl-capped Ile-Lys-Val-Ala-Val , please.
Response: 1630

----------
endpoint: new absorption band in water (nm)
Give bare numbers, in nm.

Prompt: # lookup: new absorption band in water of perfluorophenyl-capped Ile-Lys-Val-Ala-Val
Response: 285

----------
endpoint: absorption peak in water

Prompt: # lookup: absorption peak in water of phenyl-capped Ile-Lys-Val-Ala-Val
Response: 262 nm

----------
endpoint: absorption peak in methanol (nm)
One number for each entry, in nm.

Prompt: Given phenyl-capped Ile-Lys-Val-Ala-Val , state its recorded absorption peak in methanol.
Response: 254
